// EC50 lookup, one value per entry
# tested.system: Retinoic acid receptor RXR-gamma (Homo sapiens, UniProt P48443)
# Sequence (P48443 whole entry): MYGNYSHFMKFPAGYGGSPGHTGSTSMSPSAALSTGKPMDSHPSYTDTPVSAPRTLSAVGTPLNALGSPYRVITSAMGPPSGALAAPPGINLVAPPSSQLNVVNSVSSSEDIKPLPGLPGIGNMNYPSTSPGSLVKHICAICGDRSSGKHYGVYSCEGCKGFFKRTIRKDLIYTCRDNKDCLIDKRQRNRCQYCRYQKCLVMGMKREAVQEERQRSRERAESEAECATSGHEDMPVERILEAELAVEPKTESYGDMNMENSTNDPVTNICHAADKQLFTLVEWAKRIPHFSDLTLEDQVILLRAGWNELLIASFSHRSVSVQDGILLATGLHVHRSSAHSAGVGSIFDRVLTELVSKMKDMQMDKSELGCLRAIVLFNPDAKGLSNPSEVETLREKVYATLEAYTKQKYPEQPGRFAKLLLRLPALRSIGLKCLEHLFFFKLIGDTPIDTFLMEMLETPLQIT
# assay.method.text: Transcriptional activity was evaluated in CV-1 cells transfected with expression vector for Retinoic acid receptor RXR-gamma

>  <molecular.string>
Cc1cc2c(cc1/C(=N\OC(C)(C)C)c1ccc(C(=O)O)cc1)C(C)(C)CCC2(C)C

>  <EC50>
> 10 µM

$$$$
>  <molecular.string>
CCO/N=C(/c1ccc(C(=O)O)cc1)c1cc2c(cc1C)C(C)(C)CCC2(C)C

>  <EC50>
> 10 µM

$$$$

Quick check: EC50 of Cc1cc2c(cc1/C(=N/OC(C)(C)C)c1ccc(C(=O)O)cc1)C(C)(C)CCC2(C)C ?
> 10 µM
